# TARGET OR SYSTEM: human β-Secretase (Homo sapiens, UniProt P56817)
# Sequence (P56817 22-460): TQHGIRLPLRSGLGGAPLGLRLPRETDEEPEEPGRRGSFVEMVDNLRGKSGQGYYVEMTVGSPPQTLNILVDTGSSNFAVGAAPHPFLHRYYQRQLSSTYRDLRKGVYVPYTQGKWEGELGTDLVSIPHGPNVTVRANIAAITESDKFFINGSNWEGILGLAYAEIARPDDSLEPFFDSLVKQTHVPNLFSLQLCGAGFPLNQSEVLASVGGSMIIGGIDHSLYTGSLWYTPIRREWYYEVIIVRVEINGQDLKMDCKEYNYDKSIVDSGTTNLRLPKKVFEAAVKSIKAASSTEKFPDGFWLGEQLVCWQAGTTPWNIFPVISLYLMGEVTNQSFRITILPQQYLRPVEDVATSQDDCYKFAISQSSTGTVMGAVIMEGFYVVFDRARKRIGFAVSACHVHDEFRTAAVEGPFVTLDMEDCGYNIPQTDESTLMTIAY
# PROTOCOL NOTES: TR-FRET assay
# Assay type: biochemical
# REPORTED CONDITIONS: enzyme (truncated form) 0.3 nM; substrate (Europium)CEVNLDAEFK(Qsy7) 100 nM; pH4.5; 15 minutes at room temperature
Counter-ions that a name gives are not always drawn.
ENDPOINT: IC50 (nM)

INSERT INTO measurements (compound, bound_type, measured_number) VALUES
  ('CN1C(=O)C(c2ccc([Si](C)(C)C)cc2)(c2cccc(-c3cncnc3)c2)N=C1N (single isomer, unassigned) [Example 15 (isomer 2)]', '>', 10000),
  ('CN1C(=O)C(c2ccc([Si](C)(C)C)cc2)(c2cccc(-c3cncc(C#N)c3)c2)N=C1N (stereo not shown) [Example 19, acetic acid salt]', '=', 118),
  ('CN1C(=O)C(c2cccc(-c3cccnc3F)c2)(c2cccc([Si](C)(C)C)c2)N=C1N (stereo not shown)', '=', 182),
  ('CN1C(=O)C(c2cccc(-c3cncnc3)c2)(c2cccc([Si](C)(C)C)c2)N=C1N (stereo not shown)', '=', 135);

---

# TARGET OR SYSTEM: human β-Secretase (Homo sapiens)
# PROTOCOL NOTES: TR-FRET assay
# Type: biochemical
# REPORTED CONDITIONS: enzyme (truncated form) 0.3 nM; substrate (Europium)CEVNLDAEFK(Qsy7) 100 nM; pH4.5; 15 minutes at room temperature
Structures can show the parent of a compound that is named as a salt.
ENDPOINT: IC50 (nM)

INSERT INTO measurements (compound, measured_number) VALUES
  ('CN1C(=O)C(c2cccc(-c3cncc(Cl)c3)c2)(c2cccc([Si](C)(C)C)c2)N=C1N (stereo not shown)', 163),
  ('COc1cccc(-c2cccc(C3(c4cccc([Si](C)(C)C)c4)N=C(N)N(C)C3=O)c2)n1 (stereo not shown)', 1530),
  ('CN1C(=O)C(c2ccc([Si](C)(C)C)cc2)(c2cccc(-c3cnc(F)nc3)c2)N=C1N (stereo not shown)', 460),
  ('COc1cncc(-c2cccc(C3(c4ccc([Si](C)(C)C)cc4)N=C(N)N(C)C3=O)c2)c1 (stereo not shown) [Example 16, acetic acid salt]', 23);

---

# TARGET OR SYSTEM: UniProt P56817
# PROTOCOL NOTES: TR-FRET assay
# Format: biochemical
# REPORTED CONDITIONS: enzyme (truncated form) 0.3 nM; substrate (Europium)CEVNLDAEFK(Qsy7) 100 nM; pH4.5; 15 minutes at room temperature
Counter-ions that a name gives are not always drawn.
ENDPOINT: IC50 (nM)

INSERT INTO measurements (compound, display_unit, measured_number) VALUES
  ('CN1C(=O)C(c2cccc(-c3cccnc3)c2)(c2cccc([Si](C)(C)C)c2)N=C1N (centres unmarked) [Example 29]', 'nM', 202),
  ('CN1C(=O)C(c2ccc([Si](C)(C)C)cc2)(c2cccc(-c3cccnc3)c2)N=C1N (centres unmarked) [Example 17, acetic acid salt]', 'nM', 118),
  ('CN1C(=O)C(c2ccc([Si](C)(C)C)cc2)(c2cccc(-c3cncnc3)c2)N=C1N (racemic) [Example 14]', 'nM', 107),
  ('CN1C(=O)C(c2ccc([Si](C)(C)C)cc2)(c2cccc(-c3cnn(C)c3)c2)N=C1N (centres unmarked) [Example 22, Acetic Acid Salt]', 'nM', 2740),
  ('COc1cccc(-c2cccc(C3(c4ccc([Si](C)(C)C)cc4)N=C(N)N(C)C3=O)c2)c1 (centres unmarked) [Example 12]', 'nM', 84),
  ('CN1C(=O)C(c2cccc(-c3ccc(F)nc3)c2)(c2cccc([Si](C)(C)C)c2)N=C1N (centres unmarked) [Example 28]', 'nM', 278),
  ('CN1C(=O)C(c2ccc([Si](C)(C)C)cc2)(c2cccc(-c3cncc(F)c3)c2)N=C1N (centres unmarked) [Example 18, acetic acid salt]', 'nM', 180),
  ('CN1C(=O)C(c2ccc([Si](C)(C)C)cc2)(c2cccc(-c3cnccn3)c2)N=C1N (centres unmarked) [Example 24]', 'nM', 80),
  ('CN1C(=O)C(c2ccc([Si](C)(C)C)cc2)(c2cccc(-c3cccnc3F)c2)N=C1N (centres unmarked) [Example 13]', 'nM', 81),
  ('CN1C(=O)C(c2ccc([Si](C)(C)C)cc2)(c2cccc(-c3ccc(F)nc3)c2)N=C1N (centres unmarked) [Example 20, Acetic Acid Salt]', 'nM', 437),
  ('CN1C(=O)C(c2ccc([Si](C)(C)C)cc2)(c2cccc(-c3cnccc3C#N)c2)N=C1N (centres unmarked) [Example 21, Acetic Acid Salt]', 'nM', 460),
  ('CN1C(=O)C(c2ccc([Si](C)(C)C)cc2)(c2cccc(-c3cncnc3)c2)N=C1N (single isomer, unassigned) [Example 15 (isomer 1)]', 'nM', 41),
  ('Cc1ncc(-c2cccc(C3(c4ccc([Si](C)(C)C)cc4)N=C(N)N(C)C3=O)c2)cn1 (centres unmarked) [Example 23, acetic acid salt]', 'nM', 2260),
  ('CN1C(=O)C(c2cccc(-c3cnccn3)c2)(c2cccc([Si](C)(C)C)c2)N=C1N (centres unmarked) [Example 32]', 'nM', 86);
